Hello, the source for this data is PubChem BioAssay (NCI), in case you need it.

System: CCRF-CEM leukemia
Assay: NCI-60 one-dose screen, 48 h (100 = growth as untreated, 0 = no growth, -100 = all killed)
Settings: 10 µM unless noted
This is part of a sample that, as a whole, favours compounds with a hit. Of some 83,000 tested, about 20% had one in any assay. The source made the active and inactive calls. The calls were made as follows: active = growth percent below 10; inactive = the rest.
Recorded growth, one value per entry.

• O=c1[nH]c2ccccc2cc1CSc1ccccc1Nc1nccc(-c2ccc3c(c2)OCO3)n1 = 101% (inactive)
• COc1cc(/C=C/C(=O)c2ccc(S(=O)(=O)NCCNc3nc(N(C)C)nc(N4CCOCC4)n3)cc2)cc(OC)c1OC = -27.9% (active)
• O=C1c2cccc3c(N4CCN(c5ccccc5)CC4)ccc(c23)C(=O)N1c1cccc(-c2nn(-c3ccccc3)cc2-c2nc3ccccc3s2)c1 = 98.8% (inactive)
• Cc1cccc(NCC(=O)N2CCN(c3ncnc4c3cnn4-c3ccccc3)CC2)c1 = 62.7% (inactive)
• NC(=Nc1ccc(OCCCCCCCCn2cnnn2)cc1)c1ccccc1 = 19.6% (inactive)

Reported growth ( Cc1ccccc1Nc1nnc(-c2c[nH]c3ccccc23)o1 ) = 10.5% (inactive)

Reported growth ( CC(=O)Nc1ccc(S(=O)(=O)Nc2ccc(-c3ccc4c(c3)NC(=O)/C4=C\c3ccc[nH]3)cc2)cc1 ) = 80.2% (inactive)

Reported growth ( COc1ccc(-c2nc3ccccc3n2CC(=O)N=Nc2c(O)[nH]c3ccc(OC)cc23)cc1 ) = 62.9% (inactive)

Reported growth ( Nc1nn2c(-c3cc4ccccc4oc3=O)ccnc2c1N=Nc1ccccc1 ) = 101% (inactive)

Reported growth ( COc1ccc2c(c1)N=c1c-2cc2c(O)[nH]c(=S)n2c1=O ) = 11.1% (inactive)

Reported growth ( O=C1CC(c2ccc(I)cc2)OC2C=Cc3ccccc3C12 (centres undefined) ) = 94.4% (inactive)

Reported growth ( c1n[nH]cc1-c1nc2ccc3cn[nH]c3c2c2c1CCCC2 ) = 104% (inactive)

Reported growth ( CN(C)c1nc(NCCNS(=O)(=O)c2ccc(C3=Nc4c(N)nc(N)nc4NC(c4ccc(C(F)(F)F)cc4)C3)cc2)nc(N2CCOCC2)n1 (centres undefined) ) = 21.8% (inactive)

Reported growth ( COc1ccc2c(c1)C(Sc1ccc(F)cc1)c1c(nc(N)c(C#N)c1N)O2 (centres undefined) ) = 1.67% (active)

Reported growth ( N#CC1=C(c2cccs2)Nc2c(c(-c3ccccc3)nn2-c2ccccc2)C12C(=O)Nc1ccc(Br)cc12 (centres undefined) ) = 1.86% (active)

Reported growth ( COc1ccc(N=Nc2c(N)nn3c(N)c(C#N)c(-c4ccccc4)nc23)cc1 ) = 72.7% (inactive)

Reported growth ( Cc1nn(-c2ccccc2)c2nc(C)n(C(=O)N/N=C/c3cccc([N+](=O)[O-])c3)c(=O)c12 ) = 71.2% (inactive)

Reported growth ( Cc1[nH]nc2ccc3nc(-c4cn[nH]c4C(F)(F)F)c4c(c3c12)CCCC4 ) = -12.1% (active)

Reported growth ( O=C(Cn1c(/C=C/c2ccc([N+](=O)[O-])cc2)nc2ccccc2c1=O)Nc1ccccc1 ) = 101% (inactive)
